// reported MIC per item
Test system: E. coli LBB925 (tolC mutant)
Assay: Antibacterial susceptibility (MIC), NCCLS broth microdilution
Assay type: cell-based
Conditions: Escherichia coli, read-out: Minimum inhibitory concentration, E. coli LBB925
Write it as a number; the unit µg/mL goes unstated.

Consider the reported MIC for these compounds:
{"COMPOUND": "CO[C@H]1/C=C/O[C@@]2(C)Oc3c(C)c(O)c4c(=O)c(c5oc6cc(N7CCN(CC(C)C)CC7)cc(O)c6nc-5c4c3C2=O)NC(=O)/C(C)=C\\C=C\\[C@H](C)[C@H](O)[C@@H](C)[C@@H](O)[C@@H](C)[C@H](OC(C)=O)[C@@H]1C [Rifalazil, reference compound]", "MIC / µg/mL": 16}
{"COMPOUND": "CO[C@H]1/C=C/O[C@@]2(C)Oc3c(C)c(O)c4c(=O)c(c5oc6cc(N7CCN(CCO)CC7)cc(O)c6nc-5c4c3C2=O)NC(=O)/C(C)=C\\C=C\\[C@H](C)[C@H](O)[C@@H](C)[C@@H](O)[C@@H](C)[C@H](OC(C)=O)[C@@H]1C [Compound 56]", "MIC / µg/mL": 8}
{"COMPOUND": "CO[C@H]1/C=C/O[C@@]2(C)Oc3c(C)c(O)c4c(=O)c(c5oc6cc(N7CCC(O)CC7)cc(O)c6nc-5c4c3C2=O)NC(=O)/C(C)=C\\C=C\\[C@H](C)[C@H](O)[C@@H](C)[C@@H](O)[C@@H](C)[C@H](OC(C)=O)[C@@H]1C [Compound 63]", "MIC / µg/mL": 8}
{"COMPOUND": "CO[C@H]1/C=C/O[C@@]2(C)Oc3c(C)c(O)c4c(O)c(c(/C=N/N5CCN(CCO)CC5)c(O)c4c3C2=O)NC(=O)/C(C)=C\\C=C\\[C@H](C)[C@H](O)[C@@H](C)[C@@H](O)[C@@H](C)[C@H](OC(C)=O)[C@@H]1C [Compound 9]", "MIC / µg/mL": 16}
{"COMPOUND": "CO[C@H]1/C=C/O[C@@]2(C)Oc3c(C)c(O)c4c(O)c(c(/C=N/N5CCN(C)CC5)c(O)c4c3C2=O)NC(=O)/C(C)=C\\C=C\\[C@H](C)[C@H](O)[C@@H](C)[C@@H](O)[C@@H](C)[C@H](OC(C)=O)[C@@H]1C [Rifampicin, reference compound]", "MIC / µg/mL": 8}

MIC reported for this compound CO[C@H]1/C=C/O[C@@]2(C)Oc3c(C)c(O)c4c(=O)c(c5oc6cc(N7CCNCC7)cc(O)c6nc-5c4c3C2=O)NC(=O)/C(C)=C\C=C\[C@H](C)[C@H](O)[C@@H](C)[C@@H](O)[C@@H](C)[C@H](OC(C)=O)[C@@H]1C [Compound 69] : 4

====

Tested on: S. aureus ATCC 13709
Experiment: Antibacterial susceptibility (MIC) in the presence of serum
Type: cell-based
Conditions: Staphylococcus aureus, ATCC13709, 18 h; read-out: Minimum inhibitory concentration, S. aureus ATCC 13709 + 50% Rat Serum
# reported MIC; entries follow
Field: numeric (µg/mL). Do not append units.

{"COMPOUND": "CO[C@H]1/C=C/O[C@@]2(C)Oc3c(C)c(O)c4c(O)c(c(/C=N/N5CCN(C)CC5)c(O)c4c3C2=O)NC(=O)/C(C)=C\\C=C\\[C@H](C)[C@H](O)[C@@H](C)[C@@H](O)[C@@H](C)[C@H](OC(C)=O)[C@@H]1C [Rifampicin, reference compound]", "MIC [µg/mL]": 0.125}

Documented MIC of CO[C@H]1/C=C/O[C@@]2(C)Oc3c(C)c(O)c4c(O)c(c(/C=N/N5CCN(CCO)CC5)c(O)c4c3C2=O)NC(=O)/C(C)=C\C=C\[C@H](C)[C@H](O)[C@@H](C)[C@@H](O)[C@@H](C)[C@H](OC(C)=O)[C@@H]1C : 0.062

Sample CO[C@H]1/C=C/O[C@@]2(C)Oc3c(C)c(O)c4c(=O)c(c5oc6cc(N7CCN(CC(C)C)CC7)cc(O)c6nc-5c4c3C2=O)NC(=O)/C(C)=C\C=C\[C@H](C)[C@H](O)[C@@H](C)[C@@H](O)[C@@H](C)[C@H](OC(C)=O)[C@@H]1C [Rifalazil, reference compound] ; MIC observed: 0.0078

// sample CO[C@H]1/C=C/O[C@@]2(C)Oc3c(C)c(O)c4c(=O)c(c5oc6cc(N7CCC(O)CC7)cc(O)c6nc-5c4c3C2=O)NC(=O)/C(C)=C\C=C\[C@H](C)[C@H](O)[C@@H](C)[C@@H](O)[C@@H](C)[C@H](OC(C)=O)[C@@H]1C , its MIC was 0.032
